# Test system: Caco-2
# Experimental protocol: Cytotoxicity against human Caco-2 cells after 48 hrs by MTT assay
# Format: cell-based
# Conditions: Homo sapiens, Caco-2, 48 h
Readout name: IC50 (µg/mL)
The figure you give is taken to be in µg/mL; do not add the unit.

Solved cases below.
| Compound | IC50 / µg/mL |
| --- | --- |
| C=C1[C@@H](O)C[C@H](OC(C)=O)[C@@]2(C)[C@@H](OC(C)=O)[C@H](OC(=O)c3ccccc3)C3=C(C)C(=O)C[C@@]3(C(C)(C)O)[C@@H](OC(C)=O)[C@H]12 | 100 |
| C=C1[C@@H](OC(=O)[C@H](O)[C@@H](NC(=O)OC(C)(C)C)c2ccccc2)C[C@H](OC(C)=O)[C@@]2(C)[C@@H](OC(C)=O)[C@H](OC(=O)c3ccccc3)C3=C(C)C(=O)C[C@@]3(C(C)(C)O)[C@@H](OC(C)=O)[C@H]12 | 100 |
| C=C1[C@@H](OC(=O)[C@H](O)[C@@H](NC(=O)OC(C)(C)C)c2ccccc2)C[C@H](OC(C)=O)[C@]2(C)[C@@H]1C[C@]1(C(C)(C)O)C[C@H](OC(=O)C(O)C(NC(=O)OC(C)(C)C)c3ccccc3)C(C)=C1[C@@H](OC(=O)c1ccccc1)[C@@H]2OC(C)=O (some centres not stated) | 100 |
| C=C1[C@H]2C[C@]3(C(C)(C)O)C[C@H](O)C(C)=C3[C@@H](OC(=O)c3ccccc3)[C@H](OC(C)=O)[C@]2(C)[C@@H](OC(C)=O)C[C@@H]1O | 0.0025 |
| C=C1[C@H]2C[C@]3(C(C)(C)O)CC(=O)C(C)=C3[C@@H](OC(=O)c3ccccc3)[C@H](OC(C)=O)[C@]2(C)[C@@H](OC(C)=O)C[C@@H]1O | 0.008 |
| C=C1[C@@H](O)C[C@H](OC(C)=O)[C@@]2(C)[C@@H](OC(C)=O)[C@H](OC(=O)c3ccccc3)C3=C(C)[C@@H](O)C[C@@]3(C(C)(C)O)[C@@H](OC(C)=O)[C@H]12 | 6.16 |

Okay, now this compound:
# lookup: IC50 of C=C1[C@H]2C[C@]3(C(C)(C)O)C[C@H](OC(=O)[C@H](O)[C@@H](NC(=O)OC(C)(C)C)c4ccccc4)C(C)=C3[C@@H](OC(=O)c3ccccc3)[C@H](OC(C)=O)[C@]2(C)[C@@H](OC(C)=O)C[C@@H]1O
100

====

# Experimental protocol: Cytotoxicity against human Caco-2 cells after 48 hrs by MTT assay
# Type: cell-based
# Conditions: human, Caco-2 cells
Listing: IC90 at 48 h of selected compounds
# unit: µg/mL | format: bare number

Need IC90 at 48 h of C=C1[C@@H](O)C[C@H](OC(C)=O)[C@@]2(C)[C@@H](OC(C)=O)[C@H](OC(=O)c3ccccc3)C3=C(C)C(=O)C[C@@]3(C(C)(C)O)[C@@H](OC(C)=O)[C@H]12 , thanks.
100

Need IC90 at 48 h of C=C1[C@@H](O)C[C@H](OC(C)=O)[C@@]2(C)[C@@H](OC(C)=O)[C@H](OC(=O)c3ccccc3)C3=C(C)[C@@H](O)C[C@@]3(C(C)(C)O)[C@@H](OC(C)=O)[C@H]12 , thanks.
21

Quick one: IC90 at 48 h of C=C1[C@@H](OC(=O)[C@H](O)[C@@H](NC(=O)OC(C)(C)C)c2ccccc2)C[C@H](OC(C)=O)[C@@]2(C)[C@@H](OC(C)=O)[C@H](OC(=O)c3ccccc3)C3=C(C)C(=O)C[C@@]3(C(C)(C)O)[C@@H](OC(C)=O)[C@H]12 ?
100

Which measured IC90 at 48 h value corresponds to C=C1[C@@H](OC(=O)[C@H](O)[C@@H](NC(=O)OC(C)(C)C)c2ccccc2)C[C@H](OC(C)=O)[C@]2(C)[C@@H]1C[C@]1(C(C)(C)O)C[C@H](O)C(C)=C1[C@@H](OC(=O)c1ccccc1)[C@@H]2OC(C)=O ?
100
